Below is a list of entries, each paired with its recorded Ki value.
molecular target: 5HT1A (serotonin receptor subtype 1A) (Homo sapiens, UniProt P08908); assay: NIMH PDSP secondary binding assay; settings: KI 5HT1A, NIMH PDSP; [3H]8-OH-DPAT/0.5 nM
Sequence (P08908 whole entry, species assumed): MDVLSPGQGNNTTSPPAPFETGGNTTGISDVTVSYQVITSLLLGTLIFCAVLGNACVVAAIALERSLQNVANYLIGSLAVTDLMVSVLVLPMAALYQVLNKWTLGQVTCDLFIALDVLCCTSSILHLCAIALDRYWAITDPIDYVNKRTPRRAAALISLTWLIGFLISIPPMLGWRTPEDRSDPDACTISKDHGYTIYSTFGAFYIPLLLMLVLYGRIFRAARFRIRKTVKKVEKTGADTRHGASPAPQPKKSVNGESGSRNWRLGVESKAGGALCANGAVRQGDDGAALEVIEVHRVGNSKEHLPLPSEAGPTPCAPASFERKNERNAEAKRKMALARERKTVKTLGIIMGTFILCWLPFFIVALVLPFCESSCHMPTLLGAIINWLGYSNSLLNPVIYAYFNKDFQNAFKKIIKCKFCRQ
Express your answer in nM, writing the number without its unit.

Record excerpt, results attached:
Reported 5HT1A (serotonin receptor subtype 1A) (Homo sapiens, UniProt P08908) Ki for item CCCCCCCNCCCc1ccccc1 was 130

Reported 5HT1A (serotonin receptor subtype 1A) (Homo sapiens, UniProt P08908) Ki for item CCCCCCCNCCCc1ccc([N+](=O)[O-])cc1 was 50

From here, focus on the item given below.
Reported 5HT1A (serotonin receptor subtype 1A) (Homo sapiens, UniProt P08908) Ki for item CCCCCCCCCCCCNCCCc1ccc([N+](=O)[O-])cc1 was 40

Cited source for all entries: paper PMC3234165
